Tested on: liver microsomes prepared from male Sprague–Dawley rats
Type: in vitro ADME, rat
Conditions: microsomes from phenobarbital (PB) pretreated rats; 50 μM parent PCB, 2 h, 37 °C

Molecular string | metabolite detection by GC–MS
Oc1cc(Cl)c(-c2ccc(Cl)cc2Cl)c(Cl)c1O | minor
Oc1ccc(Cl)c(-c2ccc(Cl)cc2Cl)c1Cl | major metabolite
Oc1ccc(Cl)c(-c2cc(Cl)c(Cl)cc2Cl)c1Cl | major metabolite

The measured values listed here are drawn from paper PMC5300040.
